# Test System: cross-linked His-CAhex, 6-His-CA(A14C/E45C/W184A/M185A) (HIV-1)
# Experiment Notes: SPR; Reichert 4-SPR; cross-linked His-CAhex immobilised on an NTA chip via the C-terminal His-tag; peptides 3.9 µM to 2 mM; 0.01 M HEPES pH 7.4, 0.15 M NaCl, 0.05% Surfactant P20; Scrubber 2.0, simple kinetic model
pKd: −log10 of the molar value.
// values below are reported pKd

| Binder | pKd |
| --- | --- |
| NSPSGVFTFGANSST [NUP1531409-1423 peptide] | 3.88 |
| GPLLPGQSFGGPSVS [SEC24C228-242 peptide] | 2.97 |
